# experimental_target: A-II receptor (Bos taurus)
# Construct: An A-II receptor was prepared from the membrane fraction of bovine adrenal cortex; from tissue; host or cells: bovine adrenal cortex, membrane fraction
# Sequence (P25104 1-359): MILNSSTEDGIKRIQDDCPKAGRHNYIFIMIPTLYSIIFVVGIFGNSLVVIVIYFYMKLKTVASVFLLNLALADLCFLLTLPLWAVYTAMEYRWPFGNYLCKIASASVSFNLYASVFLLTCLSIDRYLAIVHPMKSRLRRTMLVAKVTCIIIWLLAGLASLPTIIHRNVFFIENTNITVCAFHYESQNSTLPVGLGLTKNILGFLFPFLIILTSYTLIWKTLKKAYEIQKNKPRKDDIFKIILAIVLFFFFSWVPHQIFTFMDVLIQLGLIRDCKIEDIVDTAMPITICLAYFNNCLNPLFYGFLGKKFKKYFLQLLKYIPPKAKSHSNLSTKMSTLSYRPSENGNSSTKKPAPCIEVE
# assay_procedure: Inhibition of binding of angiotensin-II to angiotensin receptor (radioreceptor assay, 125I-A-II)
# Parameters: species or system bovine (membrane fraction of bovine adrenal cortex)
# setup_conditions: 1 × 10^-5 M; bovine adrenal cortex membrane; 125I-A-II; 1 h room temperature; read-out: Radioreceptor assay, inhibition of A-II binding, 1 × 10^-5 M
Rule: inhibition at 10 µM under 90% gives False, otherwise True.

> print(dat)
                                   compound  assigned.label
1  CCCCc1nc2cccc(CC(=O)OCC)c2n1Cc1ccc(-c2ccccc2-c2nn[nH]n2)cc1            True
2  CCCCc1nc2cccc(C(=O)O)c2n1Cc1ccc(-c2ccccc2-c2nnn[nH]2)cc1            True
3  CCCCc1nc2ccc(C(=O)OC)cc2n1Cc1ccc(-c2ccccc2-c2nnn[nH]2)cc1 [compound 49, reference compound]            True
4  CCc1nc2cccc(C(=O)O)c2n1Cc1ccc(-c2ccccc2-c2nn[nH]n2)cc1            True
5  CCCCc1nc2cccc(C(=O)OC(C)OC(=O)OC3CCCCC3)c2n1Cc1ccc(-c2ccccc2-c2nn[nH]n2)cc1 (stereo not shown)            True
6  CCCCc1nc2cc(C(=O)O)ccc2n1Cc1ccc(-c2ccccc2-c2nnn[nH]2)cc1 [compound 44, reference compound]           False
7  CCCCc1nc2cccc(C(=O)OCOC(=O)C(C)(C)C)c2n1Cc1ccc(-c2ccccc2-c2nn[nH]n2)cc1            True
8  CSCc1nc2cccc(C(=O)O)c2n1Cc1ccc(-c2ccccc2-c2nnn[nH]2)cc1           False

====

# Tested on: pressor action of A-II
# assay_procedure: Inhibitory effect on pressor action of A-II (oral drug, i.v. A-II 100 ng/kg)
# Format: in vivo, Jcl:SD rats (9 week old, male)
# setup_conditions: Rattus norvegicus, po; 30 mg/kg p.o.; rats; A-II 100 ng/kg i.v.; read-out: Pressor response to A II (p.o.), 30 mg/kg (percent inhibition)
test_readout: inhibition in vivo at 30 mg/kg

> print(dat)
                                    molecule  result
 1  CSCc1nc2cccc(C(=O)O)c2n1Cc1ccc(-c2ccccc2-c2nnn[nH]2)cc1 [Working Example 51]   > 70%
 2  CCCCc1nc2ccc(C(=O)O)cc2n1Cc1ccc(-c2ccccc2-c2nn[nH]n2)cc1 [compound 50, reference compound]   < 30%
 3  COCc1nc2cccc(C(=O)O)c2n1Cc1ccc(-c2ccccc2-c2nnn[nH]2)cc1 [Working Example 49]   > 70%
 4  CCCc1nc2cccc(C(=O)OC)c2n1Cc1ccc(-c2ccccc2-c2nnn[nH]2)cc1 [Working Example 31]   > 70%
 5  CCc1nc2cccc(C(=O)O)c2n1Cc1ccc(-c2ccccc2-c2nn[nH]n2)cc1 [Working Example 27]   > 70%
 6  CCCCc1nc2cccc(C(=O)OCc3oc(=O)oc3C)c2n1Cc1ccc(-c2ccccc2-c2nn[nH]n2)cc1 [Working Example 39]   > 70%
 7  CCCCc1nc2cccc(C(=O)OCC)c2n1Cc1ccc(-c2ccccc2-c2nnn[nH]2)cc1 [Working Example 14]   > 70%
 8  CCCCc1nc2cccc(C(=O)O)c2n1Cc1ccc(-c2ccccc2-c2nn[nH]n2)cc1 [Working Example 4]   > 70%
 9  CCCCc1nc2cc(Cl)cc(C(=O)OC)c2n1Cc1ccc(-c2ccccc2-c2nnn[nH]2)cc1 [Working Example 12]   > 70%
10  CCCCc1nc2ccccc2n1Cc1ccc(-c2ccccc2-c2nnn[nH]2)cc1 [Reference Example 17, reference compound]   < 30%
11  CCCCc1nc2ccc(C(=O)OC)cc2n1Cc1ccc(-c2ccccc2-c2nnn[nH]2)cc1 [compound 49, reference compound]   < 30%
12  CCCCc1nc2cccc(C(=O)OC)c2n1Cc1ccc(-c2ccccc2-c2nnn[nH]2)cc1 [Working Example 34]   > 70%
13  CCCCc1nc2cccc(C(=O)OC(C)OC(=O)OC3CCCCC3)c2n1Cc1ccc(-c2ccccc2-c2nn[nH]n2)cc1 (stereo not drawn) [Working Example 37]   > 70%
14  CCCCc1nc2ccc(Cl)cc2n1Cc1ccc(-c2ccccc2-c2nn[nH]n2)cc1 [compound 21, reference compound]   < 30%
15  CCCCc1nc2c(C(=O)OC)cccc2n1Cc1ccc(-c2ccccc2-c2nn[nH]n2)cc1 [Reference Example 29, reference compound]   < 30%
16  CCCCc1nc2cccc(C(=O)O)c2n1Cc1ccc(-c2ccccc2-c2nnn[nH]2)cc1 [Working Example 1]   > 70%
17  CCCCc1nc2cccc(CO)c2n1Cc1ccc(-c2ccccc2-c2nnn[nH]2)cc1 [Working Example 16]   > 70%
18  CCCCc1nc2cc(C)cc(C(=O)O)c2n1Cc1ccc(-c2ccccc2-c2nn[nH]n2)cc1 [Working Example 10]   > 70%
19  CCCc1nc2cccc(C(=O)O)c2n1Cc1ccc(-c2ccccc2-c2nn[nH]n2)cc1 [Working Example 7]   > 70%
20  CCCCc1nc2c(C(N)=O)cccc2n1Cc1ccc(-c2ccccc2-c2nnn[nH]2)cc1 [compound 30, reference compound]   < 30%
21  CCCCc1nc2cccc(C(=O)OCOC(=O)C(C)(C)C)c2n1Cc1ccc(-c2ccccc2-c2nn[nH]n2)cc1 [Working Example 36]   > 70%

Source listed as patent US5250554A.
